- Test system: NCI-H522
- EXPERIMENT SUMMARY: NCI tumour cell line growth inhibition, 48 h
Activity calls are given as the source filed them. No stated cut-off is given here; in the data, active = GI50 up to about 1.1 µM and inactive = higher.
Labels: active, inactive

compound="Cc1occc(=O)c1O [MALTOL]" tested_system=NCI-H522 classification=inactive
compound=CC(=O)Nc1ccc(/C=C(\NC(=O)c2ccccc2)C(=O)NNS(=O)(=O)c2ccc(C)cc2)cc1 tested_system=NCI-H522 classification=inactive
compound=COc1ccc2nc3cc(Cl)ccc3c(Sc3ccc([N+](=O)[O-])cc3)c2c1 tested_system=NCI-H522 classification=inactive
compound=CCc1nc(N)c2nc(-c3ccc(C#N)cc3)oc2n1 tested_system=NCI-H522 classification=inactive
compound="Cc1c(CNc2ccc(C(=O)NC(CC(=O)O)C(=O)O)cc2)ccc2nc(N)nc(N)c12 (stereo unspecified)" tested_system=NCI-H522 classification=active
compound="Cc1cc(Cl)ccc1NC(=O)CCCC(=O)C1CCCC1=O (stereo unspecified)" tested_system=NCI-H522 classification=inactive
compound=NS(=O)(=O)c1ccc(/N=N/c2cc3ccccc3c(C(=O)O)c2O)cc1 tested_system=NCI-H522 classification=inactive
compound=CC1=C(C(=O)NCc2ccccc2)C(c2ccc(N(C)C)cc2)C(C(=O)NCc2ccccc2)=C(C)N1 tested_system=NCI-H522 classification=inactive
compound="CC(=O)c1ccc(OCC(O)CO)cc1 (stereo unspecified)" tested_system=NCI-H522 classification=inactive
compound=CCOC(=O)Cc1cc(=O)oc2cc(O)ccc12 tested_system=NCI-H522 classification=inactive
compound=CC[C@@]12CCC(=S)N(CCSc3ccccc3)[C@@H]1c1c(n(S(=O)(=O)c3ccc(OC)cc3)c3ccccc13)CC2 tested_system=NCI-H522 classification=inactive
